Assay Readout: melting point

Some solved cases for reference:
Compound	melting point
CN1CCN(c2ccc(N/C=C3\CN=Cc4ccccc43)cc2)CC1	245 to 246 °C
Cc1ccc(C(OS(C)(=O)=O)(C(F)(F)F)C(F)(F)F)cc1C(OS(C)(=O)=O)(C(F)(F)F)C(F)(F)F	107 °C
O=C(CCl)Nc1ccc2c(c1NC(=O)c1ccc(F)cc1)C(=O)c1ccccc1C2=O	184 to 185 °C
Cc1cc([N+](=O)[O-])c(O)c2c1CCC2=O	154 to 157 °C
COc1cc(OC)nc(C(C)c2ccccc2N)n1 (stereo unspecified)	136 to 139 °C
CC(C)c1nsc(N=CN(C)C)c1C#N	95 to 97 °C
CC(=O)NC(COCc1cc(C)cc(C)c1)Cc1cccc2ccccc12 (stereo unspecified)	119 to 120 °C
CC(C)(C)OC(=O)N1CCC2(CC1)SCc1ccccc12	131 to 132 °C
COCCNC(=O)c1nc(C)c2cc(Cc3ccc(F)cc3)cnc2c1OCc1ccccc1	167 to 168 °C
CCN(CC)C(=O)OCC1CN(C(=O)c2cc(OC)c(OC)c(OC)c2)CCN1C(=S)c1cc(OC)c(OC)c(OC)c1 (stereo unspecified)	175 °C

From here, focus on the item given below.
Request: // query melting point value for entry `CNC1CN(c2c(F)c(N)c3c(=O)c(C(=O)O)cn(-c4nc(N)c(F)cc4F)c3c2Cl)C1`
Response: 204 to 213 °C
